# Target Under Test: human orexin-2 receptor (Homo sapiens (Human))
# Test Details: In vitro assay: intracellular calcium measurements (FLIPR), antagonistic activity
# Particulars: CHO cells expressing human orexin-2 receptor, orexin-A agonist, geometric mean, read-out: IC50 Ox2
pIC50: −log10 of the molar value.

{"columns": ["Compound", "pIC50"],
 "data": [
  ["Cc1c(Cl)ccc2[nH]c([C@]3(C)CCCN3C(=O)c3cc(F)ccc3-c3ncccn3)nc12", 7.68],
  ["Cc1nc(C(=O)N2CCCC2c2nc3cc(C(F)(F)F)ccc3[nH]2)c(-c2cccc(Cl)c2)s1 (stereo not shown)", 6.38],
  ["Cc1ccc(-n2cccn2)c(C(=O)N2CCC[C@@]2(C)c2nc3cc(C(F)(F)F)ccc3[nH]2)c1", 6.45],
  ["CO[C@H]1CN(C(=O)c2nc(C)sc2-c2cccc(Cl)c2)C(C)(c2nc3c(C)c(Cl)ccc3[nH]2)C1 (stereo partly shown)", 7.80],
  ["Cc1ccc(-c2ccccc2F)c(C(=O)N2CCC[C@@]2(C)c2nc3cc(C)c(C)cc3n2CC2CC2)c1", 6.77],
  ["C=C1CC(c2nc3c(C)c(Cl)ccc3[nH]2)N(C(=O)c2nc(C3CC3)sc2-c2cccc(C)c2)C1 (stereo not shown)", 8.70],
  ["C=C1CN(C(=O)c2ccccc2-n2nccn2)C(C)(c2nc3cc(OC)ccc3[nH]2)C1 (stereo not shown)", 6.98]
]}

* * *

# Target Under Test: human orexin-2 receptor (Homo sapiens (Human), UniProt O43614)
# Sequence (O43614 whole entry): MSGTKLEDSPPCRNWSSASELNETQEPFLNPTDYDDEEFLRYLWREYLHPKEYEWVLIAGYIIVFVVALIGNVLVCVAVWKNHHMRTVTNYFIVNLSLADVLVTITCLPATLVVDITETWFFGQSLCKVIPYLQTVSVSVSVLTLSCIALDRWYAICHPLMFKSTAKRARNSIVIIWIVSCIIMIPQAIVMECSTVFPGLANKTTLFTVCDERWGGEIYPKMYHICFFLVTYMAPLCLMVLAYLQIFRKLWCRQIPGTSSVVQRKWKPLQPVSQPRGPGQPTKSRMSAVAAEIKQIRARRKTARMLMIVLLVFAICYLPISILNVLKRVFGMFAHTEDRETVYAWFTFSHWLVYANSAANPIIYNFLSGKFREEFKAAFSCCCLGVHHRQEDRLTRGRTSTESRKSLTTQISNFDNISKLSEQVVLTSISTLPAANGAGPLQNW
# Test Details: In vitro assay: intracellular calcium measurements (FLIPR), antagonistic activity
# Particulars: CHO cells expressing human orexin-2 receptor, orexin-A agonist, geometric mean, read-out: IC50 Ox2

{"columns": ["Compound", "IC50"],
 "data": [
  ["Cc1c(Cl)ccc2[nH]c([C@@H]3[C@@H](C)CCN3C(=O)c3cc(C#N)ccc3-c3ccccc3)nc12 [Ex. 4.166]", "568 nM"],
  ["Cc1nc(C(=O)N2CCC[C@@]2(C)c2nc3c(C)cccc3[nH]2)c(-c2cccc(Cl)c2)s1 [Ex. 5.4]", "6 nM"],
  ["C=C1C[C@@H](c2nc3cc(OC)ccc3[nH]2)N(C(=O)c2nc(C)sc2-c2cccc(C)c2)C1 [Ex. 6.7]", "3 nM"],
  ["COc1cc2nc(C3CCCN3C(=O)c3nc(C)sc3-c3cccc(Cl)c3)[nH]c2cc1OC (stereo not shown) [Ex. 1.110]", "46 nM"]
]}

* * *

# Target Under Test: UniProt:O43614
# Test Details: In vitro assay: intracellular calcium measurements (FLIPR), antagonistic activity
# Particulars: CHO cells expressing human orexin-2 receptor, orexin-A agonist, geometric mean, read-out: IC50 Ox2
The following compounds are listed with their measured log10(IC50) values.
Measurement Type: log10(IC50) (log10 of the value in µM)

{"columns": ["Smiles Text", "Target Under Test", "log10(IC50)"],
 "data": [
  ["Cc1ccc(-c2ncccn2)c(C(=O)N2CCC[C@@]2(C)c2nc3cc(OC(F)(F)F)ccc3[nH]2)c1", "UniProt:O43614", -0.42],
  ["COc1cc2nc([C@@H]3[C@@H](C)CCN3C(=O)c3cc(C)ccc3-c3ncccn3)[nH]c2cc1OC", "UniProt:O43614", -1.16],
  ["Cc1ccc(-c2ccc(C)cc2C(=O)N2CCC[C@@]2(C)c2nc3cc(C)c(C)cc3n2CCF)cc1", "UniProt:O43614", -1.41],
  ["Cc1ccc(-c2cccnc2)c(C(=O)N2CC[C@H](C)[C@H]2c2nc3cc(Cl)c(C)cc3[nH]2)c1", "UniProt:O43614", 0.22],
  ["C=C1C[C@@H](c2nc3cc(OC)ccc3[nH]2)N(C(=O)c2ccccc2-n2nccn2)C1", "UniProt:O43614", -1.77],
  ["Cc1ccc(-n2nccn2)c(C(=O)N2CCC[C@@]2(C)c2nc3cc(OC(F)(F)F)ccc3[nH]2)c1", "UniProt:O43614", -0.79],
  ["Cc1nc(C(=O)N2CC[C@H](C)[C@H]2c2nc3c(C(F)(F)F)cccc3[nH]2)c(-c2ccc(Cl)cc2)s1", "UniProt:O43614", -0.74],
  ["Cc1cc2nc([C@]3(C)CCCN3C(=O)c3ccccc3-n3nccn3)[nH]c2cc1C", "UniProt:O43614", -1.59],
  ["COc1cc(F)ccc1-c1nc(C(=O)N2CCC[C@@]2(C)c2nc3c(C)c(Cl)ccc3[nH]2)c(-c2ccc(F)cc2)s1", "UniProt:O43614", 0.46],
  ["Cc1nc(C(=O)N2CC[C@H](C)[C@H]2c2nc3cc(C(F)(F)F)ccc3[nH]2)c(-c2ccc(C)c(C)c2)s1", "UniProt:O43614", -0.20]
]}
